- experimental.protocol: Azithromycin solubility as a function of pH
- Assay type: physicochemical
- particulars: pH 6.42, aqueous buffer; read-out: Azithromycin Solubility

structure.string	measure.unit	solubility
CC[C@H]1OC(=O)[C@H](C)[C@@H](O[C@H]2C[C@@](C)(OC)[C@@H](O)[C@H](C)O2)[C@H](C)[C@@H](O[C@@H]2O[C@H](C)C[C@H](N(C)C)[C@H]2O)[C@](C)(O)C[C@@H](C)CN(C)[C@H](C)[C@@H](O)[C@]1(C)O	mg/mL	310

----------
- experimental.protocol: Azithromycin solubility as a function of pH
- Type: physicochemical
- particulars: pH 6.87, aqueous buffer; read-out: Azithromycin Solubility

structure.string	solubility, mg/mL
CC[C@H]1OC(=O)[C@H](C)[C@@H](O[C@H]2C[C@@](C)(OC)[C@@H](O)[C@H](C)O2)[C@H](C)[C@@H](O[C@@H]2O[C@H](C)C[C@H](N(C)C)[C@H]2O)[C@](C)(O)C[C@@H](C)CN(C)[C@H](C)[C@@H](O)[C@]1(C)O	36
